assay: chemical genetic growth profiling, strain panel (AID 1159580);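 note: tested at 20 µM; growth read once vehicle control cultures reached saturation at 30 °C; 1 = growth at the plate median or of vehicle wells; lower values mean less growth of the strain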; conditions: S. cerevisiae deletion strains, growth OD, locus YGL227W, strain vid30, hits give low values
In all, about 5,500 compounds went through this assay and about 2,000 (36%) were called active. Roughly 18% stayed inconclusive and do not appear here. This is one part of the list.
Catalogue of normalized growth values
API note: the answer field is a bare number with no unit suffix.

The examples below pair each entry with its known result.
{"Molecule": "COc1ccc2c(c1)[C@@]1(C)CCC(=O)C[C@H]1CC2", "normalized growth": 0.96}
{"Molecule": "O=C(/C=C/c1ccccc1)O[C@H]1C[C@@H](O)[C@]2(O)C=CO[C@@H](O[C@@H]3O[C@H](CO)[C@@H](O)[C@H](O)[C@H]3O)[C@H]12", "normalized growth": 1.03}
{"Molecule": "CC(C)[N+](C)(CCOC(=O)C1c2ccccc2Oc2ccccc21)C(C)C", "normalized growth": 1.02}

Please give the documented normalized growth of CN1CCc2cc3c(cc2C1O)OCO3 (stereo not given)
0.986

Given the molecule CC(C)N(C(=O)CCl)c1ccccc1 , write its reported normalized growth.
1.01

----------
assay: chemical genetic growth profiling, strain panel (AID 1159580); conditions: S. cerevisiae deletion strains, growth OD, locus YDR297W, strain sur2, hits give low values
The whole screen tested about 5,500 compounds, of which about 2,000 (36%) were called active. Another 18% or so got no clear call; they are omitted. Some of the results follow.
Value Kind: normalized growth
// no unit, no text: just the number

Return normalized growth (reported value) for this molecule: OCC(O)Cc1ccc2c(c1)OCO2 (stereo not drawn)
1.01

Retrieve normalized growth measured for O=C(O)C1CC([C@@H]2CCCCN2)CN2CCCCC12 (stereo partly drawn) and print it.
0.984

Tell me normalized growth reported for C[C@@H]1O[C@@H](O[C@H]2[C@@H](Oc3cc(O)c4c(c3)O[C@H](c3ccc(O)cc3)CC4=O)O[C@H](CO)[C@@H](O)[C@@H]2O)[C@H](O)[C@H](O)[C@H]1O
0.984

Return the recorded normalized growth value; entry: CCSC(=N)N
1.02

Tell us which normalized growth value is on record for CC1(C)C2CC[C@]3(C)C(C(=O)C=C4[C@@H]5C[C@@](C)(C(=O)O)CC[C@]5(C)CC[C@]43C)[C@@]2(C)CC[C@@H]1O (stereo partly drawn)
0.978

----------
experiment: chemical genetic growth profiling, strain panel (AID 1159580); settings: S. cerevisiae deletion strains, growth OD, locus YKL068W, hits give low values
The campaign covered roughly 5,500 compounds. About 2,000 (36%) were called active. Inconclusive results (about 18%) are left out. Some of the results follow.
Recorded normalized growth for the following molecules
No unit in the answer, only the number.

Completed entries (count: 3):
{"Molecule": "O=C1CC(c2ccc(O)cc2)Oc2ccccc21 (configuration not stated)", "Reported": 0.924}
{"Molecule": "CCCCCCCCCCCCC[N+](C)(C)Cc1ccccc1", "Reported": 0.0707}
{"Molecule": "CC(C)(C)CC(C)(C)c1ccc(OCCOCC[N+](C)(C)Cc2ccccc2)cc1", "Reported": 1.01}

In one line, give reported normalized growth of the entry C=CCc1ccc2c(c1)OCO2 .
0.987

Please give measured normalized growth of the following entry: CC(=O)OCC(CCn1cnc2cnc(N)nc21)COC(C)=O
0.977

----------
test: chemical genetic growth profiling, strain panel (AID 1159580);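 note: tested at 20 µM; growth read once vehicle control cultures reached saturation at 30 °C; 1 = growth at the plate median or of vehicle wells; lower values mean less growth of the strain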; details: S. cerevisiae deletion strains, growth OD, locus YAL013W, strain DEP1, hits give low values
Screen size: about 5,500 compounds; about 2,000 (36%) were called active. Not shown: some 18% with an inconclusive outcome. The list shows a part of the results.
Recorded normalized growth by entry

{"Molecule": "N#Cc1cnn(-c2ccccc2)c1-n1cccc1", "normalized growth": "0.976 (inactive)"}
{"Molecule": "OCCN(CCO)c1nc(N2CCCCC2)c2nc(N(CCO)CCO)nc(N3CCCCC3)c2n1", "normalized growth": "1.02 (inactive)"}

Please report the measured normalized growth for NC(N)=Nc1nc(CSCCC(N)=NS(N)(=O)=O)cs1
1 (inactive)

Given the molecule O=[N+]([O-])O[C@H]1CO[C@H]2[C@@H]1OC[C@H]2O[N+](=O)[O-] , write its reported normalized growth.
1.01 (inactive)

Output measured normalized growth for this item: COc1ccccc1C1CCN(Cc2ccc3ccccc3c2)CC1
0.981 (inactive)

Read the entry CC1(O)/C=C/C=C(\CO)C2CC(C)(C)C2(O)CC1 (stereo not given) and write its reported normalized growth.
1.02 (inactive)

Supply measured normalized growth of Nc1nc2[nH]c(=O)c(=O)[nH]c2c(=O)[nH]1 in your reply.
1.01 (inactive)

Provide measured normalized growth value, entry: COC(=O)COc1cc(Cl)c(Cl)cc1Cl
0.982 (inactive)

Please report the measured normalized growth for NC(N)=NOCC[C@H](N)C(=O)O
0.991 (inactive)

Please look at this molecule and report its normalized growth: O=C(O)CSCCOc1ccccc1
1.01 (inactive)

# return recorded normalized growth for input CC(=O)OCc1ccc(/C=C(\C#N)S(=O)(=O)c2ccc(Cl)cc2)o1
1.01 (inactive)

Identify measured normalized growth corresponding to O=C(O)c1cnn(-c2ccccc2)c1C(F)(F)F
1.01 (inactive)

Identify the reported normalized growth for the following entry. CC(C)(C)CC(C)(C)c1ccc(OCCOCC[N+](C)(C)Cc2ccccc2)cc1
0.983 (inactive)

Provide one value: measured normalized growth of C[C@H](NC(=O)/C(C#N)=C/c1ccc(O)c(O)c1)c1ccccc1
0.985 (inactive)

----------
assay: chemical genetic growth profiling, strain panel (AID 1159580);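 note: tested at 20 µM; growth read once vehicle control cultures reached saturation at 30 °C; 1 = growth at the plate median or of vehicle wells; lower values mean less growth of the strain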; conditions: S. cerevisiae deletion strains, growth OD, locus YHR030C, strain SLT2
About 2,000 (36%) of roughly 5,500 compounds were called active. Another 18% or so got no clear call; they are omitted. Rule as the data show it: active = normalized growth mostly below about 0.91 (no sharp cut-off); inconclusive = no clear call, values can overlap the other calls; inactive = mostly above about 0.92. The list shows a part of the results. Where a SMILES comes first, the peptide text is derived from it.
Thanks in advance; please answer with one of these: t (active), f (inactive)

{"Compound": "CC(C)C[C@H](N)C(=O)N[C@@H](C)C(=O)O (H-Leu-Ala-OH)", "Cat": "f"}
{"Compound": "CCCCCCCc1c(O)c2ccccc2[nH]c1=O", "Cat": "f"}
{"Compound": "CCCCOc1ccc(C(=O)CCC(=O)O)cc1", "Cat": "f"}

Which result was noted for this compound in the test: CC(=C(CCOP(=O)(O)O)SC(=O)c1ccccc1)N(C=O)Cc1cnc(C)nc1N
f

----------
test: chemical genetic growth profiling, strain panel (AID 1159580);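 note: tested at 20 µM; growth read once vehicle control cultures reached saturation at 30 °C; 1 = growth at the plate median or of vehicle wells; lower values mean less growth of the strain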; conditions: S. cerevisiae deletion strains, growth OD, locus YDR195W, strain ref2
About 2,000 (36%) of roughly 5,500 compounds were called active. Inconclusive results (about 18%) are left out. Cut-off read from the data, not from the text of the source: active = normalized growth mostly below about 0.91 (no sharp cut-off); inconclusive = no clear call, values can overlap the other calls; inactive = mostly above about 0.92. The list shows a part of the results.
Would you mind answering with one of these outcomes? t (active), f (inactive)

For orientation, consider the following solved cases.
{"Compound": "CCCCCCCCCCCCCCCCOP(=O)([O-])OCC[N+](C)(C)C", "Cat": "t"}
{"Compound": "COc1cccc([C@]2(O)CCCC[C@H]2CN(C)C)c1", "Cat": "f"}
{"Compound": "CC[C@H]1OC(=O)C[C@@H](O)[C@H](C)[C@@H](O[C@@H]2O[C@H](C)[C@@H](O[C@H]3C[C@@](C)(O)[C@@H](O)[C@H](C)O3)[C@H](N(C)C)[C@H]2O)[C@@H](CC=O)C[C@@H](C)C(=O)/C=C/C(C)=C/[C@@H]1CO[C@@H]1O[C@H](C)[C@@H](O)[C@@H](OC)[C@H]1OC", "Cat": "f"}
{"Compound": "C1CCc2nnnn2CC1", "Cat": "f"}
{"Compound": "CC(=O)O[C@]1(C(C)=O)CCC2C3C=C(Cl)C4=CC(=O)CC[C@]4(C)C3CC[C@@]21C (some centres undefined)", "Cat": "f"}
{"Compound": "C[N+](C)(C)CCOP(=O)([O-])OP(=O)(O)OC[C@H]1OC(n2ccc(N)nc2=O)[C@H](O)[C@@H]1O (some centres undefined)", "Cat": "f"}
{"Compound": "CC(C)=CCc1c(O)cc2oc(C)cc(=O)c2c1O", "Cat": "t"}
{"Compound": "CC(=O)[C@H]1CCC2C3C[C@H](C)C4=CC(=O)CC[C@]4(C)C3[C@@H](O)C[C@@]21C (some centres undefined)", "Cat": "f"}

Give the logged outcome of this assay for the following compound: CNC1(C)C2CCC(C2)C1(C)C (centres undefined)
f

Record lookup: outcome of this test for CC(C)[N+](C)(CCOC(=O)C1c2ccccc2Oc2ccccc21)C(C)C ?
f

In this assay, the call recorded for COC(=O)[C@@H]1C(O)CC[C@H]2CN3CCc4c([nH]c5ccccc45)[C@@H]3C[C@@H]21 (some centres undefined) was what?
f

Recorded call for CC(C(=O)O)c1ccc2c(c1)[nH]c1ccc(Cl)cc12 (centres undefined) ?
f

Assay result, entry O=C(O)C1CC([C@@H]2CCCCN2)CN2CCCCC12 (some centres undefined) — outcome?
f

What did this assay record as the result for Cc1c(N(C)C)c(=O)n(-c2ccccc2)n1C ?
f

# credit: PubChem BioAssay AID1159580
